Attribution: ChEMBL document CHEMBL1147643

Lab note: Ki readings collected with Adenosine receptor A3 (Homo sapiens) for the following compounds.
Answers are plain numbers, in µM.

[
  {
    "Line notation": "CNC(=O)[C@H]1O[C@@H](n2cnc3c(NCc4cccc(I)c4)ncnc32)[C@H](O)[C@@H]1CN",
    "Tested system": "Adenosine receptor A3 (Homo sapiens)",
    "Unit annotation": "µM",
    "Ki": 0.137
  }
]

Record Ki for all entries; do not skip any.
1. CNC(=O)[C@H]1O[C@@H](n2cnc3c(NCc4cccc(I)c4)ncnc32)[C@H](O)[C@@H]1N=[N+]=[N-]
2. NC[C@H]1[C@@H](O)[C@H](n2cnc3c(NCc4cccc(I)c4)ncnc32)O[C@@H]1CO
3. NNC(=O)[C@H]1O[C@@H](n2cnc3c(N)ncnc32)[C@H](O)[C@@H]1O

1. 2.26
2. 9.5
3. 1.5

---

Hi there, I'd appreciate the recorded Ki for every entry that follows.
- Tested system: Adenosine receptor A3 (Homo sapiens, UniProt P0DMS8, Q167E)
- Sequence (P0DMS8 whole entry Q167E): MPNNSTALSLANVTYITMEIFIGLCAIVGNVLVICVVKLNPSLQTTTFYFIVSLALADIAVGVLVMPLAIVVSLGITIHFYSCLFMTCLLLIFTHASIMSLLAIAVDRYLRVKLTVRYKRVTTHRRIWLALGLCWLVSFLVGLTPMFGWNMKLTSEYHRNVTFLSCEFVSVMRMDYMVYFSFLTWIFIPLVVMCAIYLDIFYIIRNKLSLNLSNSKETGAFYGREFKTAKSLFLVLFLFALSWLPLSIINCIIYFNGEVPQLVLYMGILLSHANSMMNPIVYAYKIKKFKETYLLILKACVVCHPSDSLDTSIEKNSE
- Method description: Displacement of [125I]I-AB-MECA from human adenosine A3 receptor Q167E mutant expressed in COS7 cells

The following compounds have reported results that may help.
[
  {
    "Line notation": "CNC(=O)[C@H]1O[C@@H](n2cnc3c(NCc4cc(Cl)ccc4OC)ncnc32)[C@H](O)[C@@H]1CN",
    "Endpoint name": "Ki",
    "Value measured": "7.2 µM"
  },
  {
    "Line notation": "COc1ccc(Cl)cc1CNc1ncnc2c1ncn2[C@@H]1O[C@H](CO)[C@@H](CN)[C@H]1O",
    "Endpoint name": "Ki",
    "Value measured": "> 10 µM"
  },
  {
    "Line notation": "NC(=O)N[C@H]1[C@@H](O)[C@H](n2cnc3c(NCc4cccc(I)c4)ncnc32)O[C@@H]1CO",
    "Endpoint name": "Ki",
    "Value measured": "> 100 µM"
  }
]

Parameters: items (list). Returns: Ki for each item.
1. NC[C@H]1[C@@H](O)[C@H](n2cnc3c(NCc4cccc(I)c4)ncnc32)O[C@@H]1CO
2. CNC(=O)[C@H]1O[C@@H](n2cnc3c(NCc4cccc(I)c4)ncnc32)[C@H](O)[C@@H]1CN
3. CC(=O)NC[C@H]1[C@@H](O)[C@H](n2cnc3c(NCc4cccc(I)c4)ncnc32)O[C@@H]1CO

> 10 µM
0.57 µM
> 10 µM

---

- Tested system: Adenosine receptor A3 (Homo sapiens, UniProt P0DMS8, T94E)
- Sequence (P0DMS8 whole entry T94E): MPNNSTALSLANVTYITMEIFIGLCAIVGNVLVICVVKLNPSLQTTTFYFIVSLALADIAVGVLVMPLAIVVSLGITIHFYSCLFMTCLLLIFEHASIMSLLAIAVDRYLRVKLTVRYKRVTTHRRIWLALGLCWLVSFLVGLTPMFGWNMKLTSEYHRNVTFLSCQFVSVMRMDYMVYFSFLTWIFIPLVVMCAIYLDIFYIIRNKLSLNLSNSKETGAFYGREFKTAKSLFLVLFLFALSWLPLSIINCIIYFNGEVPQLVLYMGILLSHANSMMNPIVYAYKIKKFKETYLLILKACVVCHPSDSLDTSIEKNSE
- Method description: Displacement of [125I]I-AB-MECA from human adenosine A3 receptor T94E mutant expressed in COS7 cells
Field: pKi. Provide a value for each of the molecules that follow.
Numbers only, as −log10 of the molar value.

[
  {
    "Line notation": "CNC(=O)[C@H]1O[C@@H](n2cnc3c(NCc4cccc(I)c4)ncnc32)[C@H](O)[C@@H]1N=[N+]=[N-]",
    "Tested system": "Adenosine receptor A3 (Homo sapiens, UniProt P0DMS8, T94E)",
    "pKi": 5.70
  }
]

Now for another entry.
Sample CNC(=O)[C@H]1O[C@@H](n2cnc3c(NCc4cccc(I)c4)ncnc32)[C@H](O)[C@@H]1CN — what was its pKi? 6.96

---

- Tested system: Adenosine receptor A3 (Homo sapiens)
- Method description: Inhibition of [125I]I-AB-MECA binding to wild type adenosine A3 receptor expressed in COS7 cells at 10 uM
- Format: cell-based
- Condition info: COS-7
Endpoint name: inhibition (%)
Give bare numbers, in %.

[
  {
    "Line notation": "NC[C@H]1[C@@H](O)[C@H](n2cnc3c(N)ncnc32)O[C@@H]1CO",
    "Unit annotation": "%",
    "inhibition": 3
  },
  {
    "Line notation": "CNC(=O)[C@H]1O[C@@H](n2cnc3c(NC)ncnc32)[C@H](O)[C@@H]1NC(N)=O",
    "Unit annotation": "%",
    "inhibition": 7
  },
  {
    "Line notation": "CC(=O)NC[C@H]1[C@@H](O)[C@H](n2cnc3c(NCc4cccc(I)c4)ncnc32)O[C@@H]1CO",
    "Unit annotation": "%",
    "inhibition": 15
  },
  {
    "Line notation": "NC(=O)N[C@H]1[C@@H](O)[C@H](n2cnc3c(NCc4cccc(I)c4)nc(Cl)nc32)O[C@@H]1CO",
    "Unit annotation": "%",
    "inhibition": 47
  },
  {
    "Line notation": "NC(=O)N[C@H]1[C@@H](O)[C@H](n2cnc3c(NCc4cccc(I)c4)ncnc32)O[C@@H]1CO",
    "Unit annotation": "%",
    "inhibition": 9
  },
  {
    "Line notation": "CNc1ncnc2c1ncn2[C@@H]1O[C@H](CO)[C@@H](NC(N)=O)[C@H]1O",
    "Unit annotation": "%",
    "inhibition": 3
  }
]

Here is the next item to consider.
Which inhibition value is on record for CNC(=O)[C@H]1O[C@@H](n2cnc3c(NCc4cccc(I)c4)ncnc32)[C@H](O)[C@@H]1NC(N)=O ? 5
